Tested on: Mycobacterium tuberculosis
assayName: Antimicrobial activity against Mycobacterium tuberculosis H37Rv ATCC 27294 harboring pFCA-lux AB gene measured under anaerobic condition after 11 days by luminescence analysis
Format: functional
experimentalParameters: H37Rv ATCC 27294, 264 h
recordedEndpoint: MIC (µM)
Report the value in µM with no unit label.

Recall and state the measured MIC for `O=C(Nc1cccc(-c2ccc(F)cc2)c1)N[C@@H]1COc2nc([N+](=O)[O-])cn2C1` . 3.8

Quick one: give measured MIC for `O=C(COc1ccc(-c2ccc(F)cc2)cc1)N[C@@H]1COc2nc([N+](=O)[O-])cn2C1` 26

Look up and report measured MIC for this entry: `O=C(COc1ccc(-c2ccc(F)nc2)cc1)N[C@@H]1COc2nc([N+](=O)[O-])cn2C1` 31

Output measured MIC for this item: `O=C(Nc1ccc(-c2ccc(F)nc2)cc1)N[C@@H]1COc2nc([N+](=O)[O-])cn2C1` 11

Supply reported MIC belonging to this compound: `O=C(N[C@@H]1COc2nc([N+](=O)[O-])cn2C1)OCc1ccc(-c2ccc(F)cc2)cc1` 4.2

Answer with the recorded MIC of `O=C(Nc1ccc(-c2ccc(C(F)(F)F)nc2)cc1)N[C@@H]1COc2nc([N+](=O)[O-])cn2C1` only. 17
